- EXPERIMENTAL_TARGET: SARM1 SAM-TIR (Homo sapiens);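 further: inhibition of SARM1 SAM-TIR NADase activity, i.e. NAD+ cleavage, using lysate of NRK1-HEK293T cells overexpressing the SAM-TIR fragment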
- Construct: a fragment of the SARM1 molecule encompassing the SAM and TIR domains; made in house; host or cells: NRK1-HEK293T cells, transiently transfected; the cleared, unpurified lysate was used as the enzyme
- Sequence (Q6SZW1 409-724 limits assumed): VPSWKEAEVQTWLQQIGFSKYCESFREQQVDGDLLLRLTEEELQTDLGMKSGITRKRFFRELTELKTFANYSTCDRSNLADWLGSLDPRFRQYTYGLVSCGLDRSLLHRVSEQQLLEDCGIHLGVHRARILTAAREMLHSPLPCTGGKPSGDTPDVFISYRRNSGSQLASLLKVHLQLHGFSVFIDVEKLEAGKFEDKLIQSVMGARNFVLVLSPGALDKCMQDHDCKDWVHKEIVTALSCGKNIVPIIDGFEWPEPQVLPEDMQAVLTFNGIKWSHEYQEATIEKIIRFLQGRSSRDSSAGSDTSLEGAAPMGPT
- TEST_PROTOCOL: biochemical
- MEASUREMENT_PARAMETERS: SAM-TIR lysate 5 μg/mL, 2 h pre-incubation, 5 μM NAD+, RapidFire MS of NAD+ and ADPR; read-out: SARM1 IC50
pIC50: −log10 of the molar value.
MEASUREMENT_LABEL: pIC50

Consider the worked cases shown below.
> print(dat)
                               smiles.input  endpoint.result
1           COc1cccc(C)c1Nc1s[nH]c(=O)c1C#N     5.30 to 6.00
2  N#Cc1c(Nc2ccc3c(c2)ncn3[C@H]2CCNC2)s[nH]c1=O     5.30 to 6.00
3  CN(C)C(=N)c1c(Nc2ccccc2C(F)(F)F)s[nH]c1=O     5.30 to 6.00
4  COCCn1sc(Nc2ccc(Cl)cc2C(F)(F)F)c(C#N)c1=O           > 6.00
5       Cn1sc(Nc2ccc(Cl)c3c2CCO3)c(C#N)c1=O           > 6.00
6       COCCn1sc(Nc2c(Cl)cccc2Cl)c(C#N)c1=O           > 6.00

Now examine the next entry.
Lookup: Find the measured pIC50 of COc1cccc(Cl)c1Nc1sn(C)c(=O)c1C#N and report it.
Found: > 6.00
